test: NCI Yeast Anticancer Drug Screen. Data for the CLN2oe strain (AID 163);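 also: 0% = growth of vehicle-only control cultures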; conditions: S. cerevisiae CLN2oe strain, at 11.0 µM, hits give high values
The panel holds about 79,000 compounds, 15% with a hit somewhere; the sample as a whole holds those more often.
Recorded measurements of growth inhibition, one per entry
State just the number; it will be interpreted in %.

Look over these answered cases.
Compound | growth inhibition (%)
CC1OC(OC2CCCc3c(O)c4c(c(O)c32)C(=O)c2ccccc2C4=O)CC(N)C1O (centres undefined) | 2
Cn1c2nc3ccccc3c-2nc2ccccc21 | 91
O=[N+]([O-])c1c(/C=N/Nc2ccccc2)oc(-c2ccc3c(c2)OCO3)c1-c1ccc2c(c1)OCO2 | 9
O=C(CCc1ccccc1)ON1C(=S)C(c2ccccc2)(c2ccccc2)N=C1Sc1ccccc1 | -4
Nc1nc(F)nc2c1ncn2C1OC(COP(=O)(O)O)C(O)C1O (centres undefined) | -5

Input line: What value of growth inhibition has been reported for the following compound? COc1ccc(C(C#N)=C2C=CC(=NO)C=C2)cc1
Output line: 58

Input line: Note, next up: Nc1ccc(S(=O)(=O)Nc2ccc(Nc3c4ccccc4nc4ccccc34)cc2)cc1
Output line: -15

Input line: Note, next up: On1cnc(=S)c2[nH]cnc21
Output line: -10

Input line: Note, next up: COCCCN(Cc1cc(OC)c(OC)c(OC)c1)C(=S)Nc1cccc(Cl)c1
Output line: -30

Input line: Note, next up: CCOC(=O)c1csc(Br)n1
Output line: 0

Input line: Note, next up: O=C1OC2C(O)COC2(OCc2c[nH]c3ccccc23)C1O (centres undefined) (tested in a mixture with another compound)
Output line: 0

Input line: Note, next up: O=C(Nc1ccc2c(c1)Cc1c-2ccc([N+](=O)[O-])c1F)C(F)(F)F
Output line: -4

Input line: Note, next up: O=Nn1c2ccccc2c2ccccc21
Output line: 11

Input line: Note, next up: C/C=C/[P+](c1ccccc1)(c1ccccc1)c1ccccc1
Output line: 29

Input line: Note, next up: N#CSC1CCCCNC1=O (centres undefined)
Output line: 21

Input line: Note, next up: COc1ccc(N=N/C(=N\NC(=O)c2cc(Br)ccc2O)c2ccc(N(CCC#N)CCC#N)cc2OC)cc1
Output line: 24

Input line: Note, next up: CN[C@@H]1C[C@H]2O[C@@](C)([C@@H]1OC)n1c3ccccc3c3c4c(c5c6ccccc6n2c5c31)C(=O)N[C@@H]4O
Output line: 5

Input line: Note, next up: S=P(N1CC1)(N1CC1)N1CC1
Output line: -6

Input line: Note, next up: CN(C)CCN1C(=O)c2cccc3cc([N+](=O)[O-])cc(c23)C1=O
Output line: 41

Input line: Note, next up: Clc1c(Cl)c(Cl)c2c(nnn2C2CCCO2)c1Cl (centres undefined)
Output line: 0

Input line: Note, next up: Cc1cc(Cl)ccc1NC(=O)/C(Cl)=C1/Sc2ccccc2NC1=O
Output line: -6

Input line: Note, next up: CCN(CC)CC(O)C1CCC(c2ccccc2)CC1 (centres undefined)
Output line: 41

Input line: Note, next up: CO[C@@]12[C@H](COC(N)=O)C3=C(C(=O)C(C)=C(N)C3=O)N1C[C@@H]1N[C@@H]12
Output line: 7

Input line: Note, next up: CC(=O)CC(=O)/C=C/c1cccs1
Output line: -24

Input line: Note, next up: S=c1[nH]c2c(Cl)c(Cl)c(Cl)c(Cl)c2[nH]1
Output line: 48

Input line: Note, next up: CN(N=O)c1ccc(/C=C/c2ccnc3ccccc23)cc1
Output line: 5

Input line: Note, next up: CNc1ccc(Cc2c[nH]c3ccccc23)cc1
Output line: -35

###

Recorded measurements of growth inhibition, one per entry
assay: NCI Yeast Anticancer Drug Screen. Data for the rad14 strain (AID 159);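 also: 0% = growth of vehicle-treated control cultures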; conditions: S. cerevisiae rad14 strain growth inhibition; at 3.7 µM; hits give high values
Compounds without any hit were thinned out: in the full panel of roughly 79,000, 15% have a hit.
State just the number; it will be interpreted in %.

Look over these answered cases.
Compound | growth inhibition / %
CN(C)c1ccc(/C=C/c2ccnc3ccccc23)cc1N | -7
CCOP1(=O)C=C(Sc2ccc([N+](=O)[O-])cc2[N+](=O)[O-])C(C)(C)O1 (stereo not drawn) | 3
ClCCn1c(CCl)nc2ccc(Cl)cc21 | 0
CCc1[nH]nc(C(N)=O)c1N=NN(C)C | -3
O=C1C=CC(=O)N1c1ccc(I)cc1 | 28

Input line: What value of growth inhibition has been reported for the following compound? CCC(NC(C)c1ccccc1)C(=O)c1ccc(OCc2ccccc2)c(OCc2ccccc2)c1 (stereo not drawn)
Output line: 3

Input line: Note, next up: CNc1nc(C)nc2c1cnn2-c1ccc([N+](=O)[O-])cc1
Output line: 2

Input line: Note, next up: CC(C)(C)[OH+][O-].[O-]c1ccc(Cl)cc1C=Nc1ccc(Cl)cc1[O-].[O]=[V]
Output line: 9

Input line: Note, next up: N#CC(=S)Nc1cccc(Cl)c1
Output line: -6

Input line: Note, next up: CCC(C)(c1ccc(O)c(C)c1)c1ccc(O)c(C)c1
Output line: -43

Input line: Note, next up: OCCN(CCO)c1ccc2c(c1)Cc1ccccc1-2
Output line: -4

###

Recorded measurements of growth inhibition, one per entry
experiment: NCI Yeast Anticancer Drug Screen. Data for the rad52 strain (AID 147);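 also: 0% = growth of vehicle-treated control cultures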; conditions: S. cerevisiae rad52 mutant growth inhibition; at 3.7 µM; hits give high values
The panel holds about 79,000 compounds, 15% with a hit somewhere; the sample as a whole holds those more often. Active and inactive are the calls of the source. No stated cut-off is given here; in the data, active means growth inhibition above about 70%; inactive means the rest.

Look over these answered cases.
Molecule | growth inhibition
CCOC(=O)Nc1ccc2c(c1)Cc1ccccc1-2 | -10% (inactive)
CCOC(=O)C1=C(C)NC(C)=C(C(=O)OCC)C1c1ccccc1Cl | -10% (inactive)
CCN(CC)CC(O)C1CCC(c2ccccc2)CC1 (stereo not drawn) | 11% (inactive)
COc1cc([C@@H]2c3cc4c(cc3[C@@H](OC3OC5COC(C)OC5C(O)C3O)[C@H]3COC(=O)[C@H]23)OCO4)cc(OC)c1O (stereo partly drawn) | 4% (inactive)
NC(N)=NCCCS(=O)(=O)Nc1ccc(Nc2c3ccccc3nc3cc([N+](=O)[O-])ccc23)cc1 | 8% (inactive)

Input line: What value of growth inhibition has been reported for the following molecule? O=S(=O)(c1cc(Cl)ccc1O)c1cc(Cl)ccc1O
Output line: 91% (active)

Input line: Note, next up: O=C(N/N=C\c1c(Cl)cccc1Cl)N/N=C/c1c(Cl)cccc1Cl
Output line: 14% (inactive)

Input line: Note, next up: O=C(/C=C/c1cccc2ccccc12)c1ccc(Cl)cc1
Output line: 7% (inactive)

Input line: Note, next up: S=c1cn[nH]c2ccc(Br)cc12
Output line: 8% (inactive)

Input line: Note, next up: CCCCCC(=O)c1ccc(O)cc1O
Output line: 1% (inactive)

Input line: Note, next up: Cc1cccc(/C=N/NC(=S)N(C)CCc2ccccn2)n1
Output line: 98% (active)

Input line: Note, next up: Cc1cc(Cl)nc2nc(Cl)c(N)cc12
Output line: -3% (inactive)

Input line: Note, next up: S=c1nc(Cl)cc2[nH]c(Cl)cn12
Output line: 6% (inactive)

Input line: Note, next up: Nc1nc2c(c(=O)[nH]1)NC(CCNc1ccc(C(=O)O)cc1)CN2 (stereo not drawn)
Output line: 1% (inactive)

Input line: Note, next up: S=c1[nH]c2c(Cl)c(Cl)c(Cl)c(Cl)c2[nH]1
Output line: 6% (inactive)

Input line: Note, next up: CCOP1(=O)C=C(Sc2ccc([N+](=O)[O-])cc2[N+](=O)[O-])C(C)(C)O1 (stereo not drawn)
Output line: 6% (inactive)

Input line: Note, next up: COc1ccc(SCc2cc(OC)ccc2OC)cc1
Output line: 2% (inactive)

Input line: Note, next up: CCN1/C(=C/c2ccc3ccccc3[n+]2CC)C=Cc2ccccc21
Output line: -14% (inactive)

Input line: Note, next up: COc1ccc(S(=O)(=O)N/N=C\c2cc([N+](=O)[O-])cc(I)c2O)c(OC)c1OC
Output line: 9% (inactive)

###

assay: NCI Yeast Anticancer Drug Screen. Data for the sgs1 strain (AID 173);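 also: 0% = growth of vehicle-only control cultures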; settings: S. cerevisiae sgs1 mutant, at 11.0 µM, hits give high values
The panel holds about 79,000 compounds, 15% with a hit somewhere; the sample as a whole holds those more often.
Label scheme for growth inhibition: lower than 20% is no, 20% and above is yes.

These recorded examples may help you get a feel for the data.
Compound | Assigned label
CN[C@@H]1C[C@H]2O[C@@](C)([C@@H]1OC)n1c3ccccc3c3c4c(c5c6ccccc6n2c5c31)C(=O)N[C@@H]4O | no
O=C1C=CC(=Nc2ccccc2)c2ccccc21 | yes
CCN(CC)CC(O)C1CCC(c2ccccc2)CC1 (configuration not stated) | yes
CCCc1[nH]nc(C(N)=O)c1N=NN(C)C | yes
Cc1ccc(CNc2ccc(Br)cc2)cc1 | no

Input line: Would you say S=c1[nH]nc(-c2ccc(Cl)cc2)s1 shows growth inhibition at minimum 20%?
Output line: no

Input line: Note, next up: Cc1ccc(S(=O)(=O)N/N=C/C2(c3ccccc3)c3ccccc3-c3ccccc32)cc1
Output line: yes

Input line: Note, next up: CCN1/C(=C/c2ccc3ccccc3[n+]2CC)C=Cc2ccccc21
Output line: yes

Input line: Note, next up: Cc1cc(Cl)ccc1NC(=O)/C(Cl)=C1/Sc2ccccc2NC1=O
Output line: no

Input line: Note, next up: Cc1cc(N=C2C=CC(=[N+](C)C)C=C2)c(N)cc1N
Output line: no

Input line: Note, next up: COc1ccc(N2CN(C)CSC2=S)cc1
Output line: no

Input line: Note, next up: C(=N/NC1=NCCN1)/c1c2ccccc2c(/C=N\NC2=NCCN2)c2ccccc12
Output line: yes

# credit: PubChem BioAssay (NCI)
